Data origin: patent US20090317363A1

molecular target: CCR5 (UniProt P51681); assay: cell-based or functional assay
A collection of binders and their measured CCR5 sequestration (%) (% of control surface CCR5)

Solved cases below.
>>> result("RANTES derivative: signature sequence SEQ ID NO: 11 fused to positions 10-68 of native RANTES (SEQ ID NO: 1) (ligand) QGPPLMALQVCCFAYIARPLPRAHIKEYFYTSGKCSNPAVVFVTRKNRQVCANPEKKWVREYINSLEMS")
9
>>> result("RANTES derivative: signature sequence SEQ ID NO: 55 fused to positions 10-68 of native RANTES (SEQ ID NO: 1) (ligand) QGPPGSWSQVCCFAYIARPLPRAHIKEYFYTSGKCSNPAVVFVTRKNRQVCANPEKKWVREYINSLEMS")
33

Switching to the query record.
Any idea what CCR5 sequestration (%) (% of control surface CCR5) was measured for RANTES derivative: signature sequence SEQ ID NO: 66 fused to positions 10-68 of native RANTES (SEQ ID NO: 1) (ligand) QGPPLMSVQSCCFAYIARPLPRAHIKEYFYTSGKCSNPAVVFVTRKNRQVCANPEKKWVREYINSLEMS ?
42
